assay: physchem; type: physicochemical; details: pH 7.4
Where a SMILES comes first, the peptide text is derived from it. [ ]: non-standard residue; d: D form. The star is where a group is joined. DOTA = O=C(O)CN1CCN(CC(=O)O)CCN(CC(=O)*)CCN(CC(=O)O)CC1
experimental_readout: logP ± SD
Numbers only.

{"compound": "CC(C)C[C@@H](NC(=O)[C@H]1CCCN1C(=O)[C@H]1CCCN1C(=O)[C@H](N)CCCNC(=N)N)C(=O)N[C@H](Cc1c[nH]c2ccccc12)C(=O)N[C@@H](C(=O)N[C@H](C)C(=O)N[C@H](CCCCNC(=O)CN1CCN(CC(=O)O)CCN(CC(=O)O)CCN(CC(=O)O)CC1)C(=O)O)[C@H](C)O [^44Sc-3, [^44Sc]^DR7A-^DLys(DOTA-Sc), metal not drawn] (H-[dR][dP][dP][dL][dW][dT][dA][dK](DOTA)-OH)", "logP ± SD": "−3.61"}
{"compound": "CC(C)C[C@H](NC(=O)[C@H](Cc1c[nH]c2ccccc12)NC(=O)[C@@H](NC(=O)[C@H](C)NC(=O)[C@@H](N)CCCCNC(=O)CN1CCN(CC(=O)O)CCN(CC(=O)O)CCN(CC(=O)O)CC1)[C@@H](C)O)C(=O)N1CCC[C@H]1C(=O)N1CCC[C@H]1C(=O)N[C@@H](CCCNC(=N)N)C(=O)O [^44Sc-1bis, [^44Sc]Lys(DOTA-Sc)-A7R, metal not drawn] (H-K(DOTA)ATWLPPR-OH)", "logP ± SD": "−3.56"}
{"compound": "CC(C)C[C@@H](NC(=O)[C@H]1CCCN1C(=O)[C@H]1CCCN1C(=O)[C@H](N)CCCNC(=N)N)C(=O)N[C@H](Cc1c[nH]c2ccccc12)C(=O)N[C@@H](C(=O)N[C@H](C)C(=O)N[C@H](CCCCNC(=O)CN1CCN(CC(=O)O)CCN(CC(=O)O)CCN(CC(=O)O)CC1)C(=O)O)[C@H](C)O [^177Lu-3, [^177Lu]^DR7A-^DLys(DOTA-Lu), metal not drawn] (H-[dR][dP][dP][dL][dW][dT][dA][dK](DOTA)-OH)", "logP ± SD": "−4.48"}

Here is another compound to look at.
Exam item: Which logP ± SD reading was recorded for the compound CC(C)C[C@@H](NC(=O)[C@H]1CCCN1C(=O)[C@H]1CCCN1C(=O)[C@H](N)CCCNC(=N)N)C(=O)N[C@H](Cc1c[nH]c2ccccc12)C(=O)N[C@@H](C(=O)N[C@H](C)C(=O)N[C@H](CCCCNC(=O)CN1CCN(CC(=O)O)CCN(CC(=O)O)CCN(CC(=O)O)CC1)C(=O)O)[C@H](C)O [^68Ga-3, [^68Ga]^DR7A-^DLys(DOTA-Ga), metal not drawn] (H-[dR][dP][dP][dL][dW][dT][dA][dK](DOTA)-OH) ?
Marked response: −4.11

* * *

type: in vitro ADME, human
Where a SMILES comes first, the peptide text is derived from it. Side-chain parts run from the residue outwards. [ ]: non-standard residue; d: D form. The star is where a group is joined. DOTA = O=C(O)CN1CCN(CC(=O)O)CCN(CC(=O)*)CCN(CC(=O)O)CC1; hArg = N=C(N)NCCCC[C@H](N)C(=O)O; Dab = NCC[C@H](N)C(=O)O; Ahx = NCCCCCC(=O)O
experimental_readout: stability in human serum

Field: example entries. Status: answers known.
{"compound": "CC(C)C[C@H](NC(=O)[C@H](Cc1c[nH]c2ccccc12)NC(=O)[C@@H](NC(=O)[C@H](C)NC(=O)[C@@H](N)CCCCNC(=O)CN1CCN(CC(=O)O)CCN(CC(=O)O)CCN(CC(=O)O)CC1)[C@@H](C)O)C(=O)N1CCC[C@H]1C(=O)N1CCC[C@H]1C(=O)N[C@@H](CCCNC(=N)N)C(=O)O [^177Lu-1bis, [^177Lu]Lys(DOTA-Lu)-A7R, metal not drawn] (H-K(DOTA)ATWLPPR-OH)", "stability in human serum": "insufficient stability"}
{"compound": "CC(C)C[C@H](NC(=O)[C@H](Cc1c[nH]c2ccccc12)NC(=O)[C@@H](NC(=O)[C@H](C)NC(=O)[C@@H](N)CCCCNC(=O)CN1CCN(CC(=O)O)CCN(CC(=O)O)CCN(CC(=O)O)CC1)[C@@H](C)O)C(=O)N1CCC[C@H]1C(=O)N1CCC[C@H]1C(=O)N[C@@H](CCCNC(=N)N)C(=O)O [^68Ga-1bis, [^68Ga]Lys(DOTA-Ga)-A7R, metal not drawn] (H-K(DOTA)ATWLPPR-OH)", "stability in human serum": "insufficient stability"}
{"compound": "CC(C)C[C@H](NC(=O)[C@H](Cc1c[nH]c2ccccc12)NC(=O)[C@@H](NC(=O)[C@H](C)NC(=O)CCCCCNC(=O)CN1CCN(CC(=O)O)CCN(CC(=O)O)CCN(CC(=O)O)CC1)[C@@H](C)O)C(=O)N1CCC[C@H]1C(=O)N1CCC[C@H]1C(=O)N[C@@H](CCCNC(=N)N)C(=O)O [^44Sc-1, [^44Sc]Sc-DOTA-Ahx-A7R, metal not drawn] ({DOTA-Ahx}-ATWLPPR-OH)", "stability in human serum": "insufficient stability"}
{"compound": "CC(C)C[C@@H](NC(=O)[C@H]1CCCN1C(=O)[C@H]1CCCN1C(=O)[C@H](N)CCCNC(=N)N)C(=O)N[C@H](Cc1c[nH]c2ccccc12)C(=O)N[C@@H](C(=O)N[C@H](C)C(=O)N[C@H](CCCCNC(=O)CN1CCN(CC(=O)O)CCN(CC(=O)O)CCN(CC(=O)O)CC1)C(=O)O)[C@H](C)O [^177Lu-3, [^177Lu]^DR7A-^DLys(DOTA-Lu), metal not drawn] (H-[dR][dP][dP][dL][dW][dT][dA][dK](DOTA)-OH)", "stability in human serum": "insufficient stability"}

Here is another compound to look at.
Exam item: Which stability in human serum reading was recorded for the compound N=C(N)NCCCC[C@H](N)C(=O)NCCCC[C@H](N)C(=O)N[C@@H](CCNC(=O)CCCCCNC(=O)CN1CCN(CC(=O)O)CCN(CC(=O)O)CCN(CC(=O)O)CC1)C(=O)N1CCC[C@H]1C(=O)N[C@@H](CCCNC(=N)N)C(=O)O [^44Sc-2, [^44Sc]Sc-DOTA-Ahx-K4R, metal not drawn] (H-K(hArg)[Dab]([Ahx-DOTA])PR-OH) ?
Marked response: insufficient stability
